assay: physchem; conditions: aqueous buffer
readout: solubility

Query "CNC(=S)NC" yields solubility of ~4000 mM
